Reported IC50 values for the following molecules.
Target: WHSC1L1 1054–1285 (Homo sapiens, UniProt Q9BZ95)
Sequence (Q9BZ95 1054-1285): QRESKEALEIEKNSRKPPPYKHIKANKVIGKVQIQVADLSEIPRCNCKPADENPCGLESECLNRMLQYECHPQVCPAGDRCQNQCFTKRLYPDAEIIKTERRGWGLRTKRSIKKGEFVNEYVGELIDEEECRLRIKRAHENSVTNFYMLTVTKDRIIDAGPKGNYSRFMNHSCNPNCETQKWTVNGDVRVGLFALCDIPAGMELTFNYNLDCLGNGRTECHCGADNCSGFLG
Square brackets hold non-standard residues; d marks the D form. Peptide text beside a SMILES is read from it. Nle = CCCC[C@H](N)C(=O)O
readout name: IC50

molecule="CCCC[C@H](NC(C)=O)C(=O)N[C@@H](CCCNC(=N)N)C(=O)N[C@H](C(=O)N[C@@H](CO)C(=O)NCC(N)=O)[C@@H](C)CC [PTD7] (Ac-[Nle]RISG-NH2)" test_value="> 1000 µM"
molecule="CCCC[C@H](NC(=O)[C@@H](NC(=O)CNC(=O)CNC(=O)[C@H](CCCNC(=N)N)NC(=O)[C@H](CCCNC(=N)N)NC(=O)[C@H](C)NC(=O)[C@H](CC(C)C)NC(=O)[C@H](CCCNC(=N)N)NC(C)=O)C(C)C)C(=O)N[C@@H](CCCNC(=N)N)C(=O)N[C@H](C(=O)N[C@@H](CO)C(=O)NCC(=O)N[C@@H](CC(C)C)C(=O)N[C@H](C(N)=O)[C@@H](C)CC)[C@@H](C)CC [PTD1] (Ac-RLARRGGV[Nle]RISGLI-NH2)" test_value="1.1 µM"
molecule=CCCC[C@H](NC(=O)[C@@H](NC(=O)CNC(=O)CNC(=O)[C@@H](NC(=O)[C@H](C)NC(=O)[C@@H]1CCCN1C(=O)[C@H](C)NC(=O)[C@H](CO)NC(C)=O)[C@@H](C)O)C(C)C)C(=O)N[C@@H](CCCCN)C(=O)N1CCC[C@H]1C(=O)N[C@@H](Cc1c[nH]cn1)C(=O)N[C@@H](CCCNC(=N)N)C(=O)N[C@@H](Cc1ccc(O)cc1)C(=O)N[C@@H](CCCNC(=N)N)C(N)=O test_value="190 µM"
molecule="CCCC[C@H](NC(=O)[C@@H](NC(=O)CNC(C)=O)C(C)C)C(=O)N[C@@H](CCCCN)C(=O)N1CCC[C@H]1C(N)=O [PTD9] (Ac-GV[Nle]KP-NH2)" test_value="370 µM"
molecule="CCCC[C@H](NC(=O)[C@@H](NC(=O)CNC(=O)CNC(C)=O)C(C)C)C(=O)N[C@@H](CCCNC(=N)N)C(N)=O [PTD4] (Ac-GGV[Nle]R-NH2)" test_value="320 µM"
molecule="CCCC[C@H](NC(=O)[C@@H](NC(=O)CNC(=O)CNC(=O)[C@H](CCCNC(=N)N)NC(C)=O)C(C)C)C(N)=O [PTD5] (Ac-RGGV[Nle]-NH2)" test_value="110 µM"
